Value source: patent US20250270287A1

- Assayed system: T1, Activin B (UniProt P09529 293-407)
- T1 sequence (looked up): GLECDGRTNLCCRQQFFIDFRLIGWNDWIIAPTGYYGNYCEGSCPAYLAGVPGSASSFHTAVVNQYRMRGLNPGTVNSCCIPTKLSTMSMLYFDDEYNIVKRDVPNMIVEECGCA
- Assay name: cell-based or functional assay
In this section, each of the binders is paired with its reported IC50, SBE-luciferase reporter in HEK293 cells.
Observation type: IC50, SBE-luciferase reporter in HEK293 cells (µg/mL)

binder="ActRIIA-B1B4 (SEQ ID NO: 102) chimera-Fc protein (Fc fusion, Tested as chimera-Fc protein; also called ActRIIA-B1β4; not shown: linker (if any) and Fc domain) GAILGRSETQECIYYNANWEKDRTNQTGVEPCYGDKDKRRHCFATWKNISGTIELVKKGCWLDDINCYDRTDCVEKKDSPEVYFCCCEGNMCNEKFSYFPEMEVTQPTS" recorded_measurement=0.13
binder="ActRIIA-A5 (SEQ ID NO: 107) chimera-Fc protein (Fc fusion, Tested as chimera-Fc protein; not shown: linker (if any) and Fc domain) GAILGRSETQECLFFNANWEKDRTNQTGVEPCYGDKDKRRHCFATWKNISGSIEIVKQGCWLDDFNCYDRQECVEKKDSPEVYFCCCEGNMCNEKFSYFPEMEVTQPTS" recorded_measurement=0.073
binder="ActRIIA-B1B7 (SEQ ID NO: 101) chimera-Fc protein (Fc fusion, Tested as chimera-Fc protein; also called ActRIIA-B1β7; not shown: linker (if any) and Fc domain) GAILGRSETQECIYYNANWEKDRTNQTGVEPCYGDKDKRRHCFATWKNISGSIEIVKQGCWLDDINCYDRTDCVEKKDSPEVYFCCCEGNMCNERFTHLPEMEVTQPTS" recorded_measurement=0.25
